# Tested Target: interaction between the recombinant extracellular domain (ECD) of PD-1 and native cell-bound PD-L1 (Homo sapiens, UniProt Q9NZQ7)
# Sequence (Q9NZQ7 19-290): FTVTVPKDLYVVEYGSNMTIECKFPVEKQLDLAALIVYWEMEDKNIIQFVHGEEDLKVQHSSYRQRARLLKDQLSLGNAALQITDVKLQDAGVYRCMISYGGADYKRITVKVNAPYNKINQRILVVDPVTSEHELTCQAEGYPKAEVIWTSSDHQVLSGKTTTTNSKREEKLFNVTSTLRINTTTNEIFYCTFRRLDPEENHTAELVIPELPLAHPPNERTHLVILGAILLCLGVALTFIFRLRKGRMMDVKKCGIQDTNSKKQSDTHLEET
# Experiment: CHO/PD-L1 cell capture assay
# Test Conditions: CHO cells overexpressing PD-L1, pre-incubated 1 hr with compound, captured on biotinylated Fc-PD-1 coated plates, 75 min at room temperature
Provide the reported EC50 of each item.
Numeric answer only, unit nM assumed.

Please supply the value of reported EC50 for the item COc1nc(OCc2cccc(-c3cccc(COc4nc(OC)c(CNC[C@@H](O)CC(=O)O)cc4C#N)c3C)c2C)c(C#N)cc1CNC[C@@H](O)CC(=O)O [Example 243]
90.6

Please supply the value of reported EC50 for the item COc1nc(OCc2cccc(-c3cccc(COc4nc(OC)c(CNCCCC(N)=O)cc4Br)c3C)c2C)c(Br)cc1CNCCCC(N)=O [Example 116]
134

Please supply the value of reported EC50 for the item COc1cc(OCc2cccc(-c3cccc(COc4cc(OCc5cncc(C#N)c5)c(CNC[C@H](O)C(=O)O)cc4Cl)c3C)c2C)c(Cl)cc1CNC[C@H](O)C(=O)O [Example 216]
206

Please supply the value of reported EC50 for the item Cc1c(COc2cc(OCc3cncc(C#N)c3)c(CNC[C@@H](O)CC(=O)O)cc2Cl)cccc1-c1cccc(-c2ccc(OCCNC[C@@H](O)CC(=O)O)c(C(F)(F)F)c2)c1C [Example 94]
228

Please supply the value of reported EC50 for the item COc1nc(OCc2cccc(-c3cccc(COc4nc(OC)c(CNC5(C#N)CCC5)cc4Cl)c3C)c2C)c(Cl)cc1CNC1(C#N)CCC1 [Example 231]
277

Please supply the value of reported EC50 for the item Cc1c(COc2nc(OCc3cncnc3)c(CNC[C@@H](O)CC(=O)O)cc2Br)cccc1-c1cccc(COc2nc(OCc3cncnc3)c(CNC[C@@H](O)CC(=O)O)cc2Br)c1C [Example 126]
180

Please supply the value of reported EC50 for the item Cc1c(COc2nc(OCC3COC3)c(CNC[C@@H](O)CC(=O)O)cc2Br)cccc1-c1cccc(COc2nc(OCC3COC3)c(CNC[C@@H](O)CC(=O)O)cc2Br)c1C [Example 132]
194

---

# Tested Target: PD-1/PD-L1 (Homo sapiens)
# Sequence (Q9NZQ7 19-238 limits assumed): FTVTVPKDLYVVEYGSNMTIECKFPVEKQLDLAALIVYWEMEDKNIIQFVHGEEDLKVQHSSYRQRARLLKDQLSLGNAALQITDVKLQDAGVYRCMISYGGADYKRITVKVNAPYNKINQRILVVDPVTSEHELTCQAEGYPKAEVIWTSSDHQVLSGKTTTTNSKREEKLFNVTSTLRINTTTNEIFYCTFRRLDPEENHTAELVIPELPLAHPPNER
# Experiment: PD-1/PD-L1 biochemical protein-protein interaction assay (ALPHA)
# Test Conditions: 0.3 nM His tagged PD-L1, 2.5 nM biotinylated Fc-PD-1, 60 minutes at 25° C., read-out: IC50 PD-L1-PD-1 Alpha IC50-mono PD-L1-fcP-D1
Endpoint: IC50 (nM)
Numeric answer only, unit nM assumed.

Please supply the value of reported IC50 for the item `COc1nc(-c2cccc(-c3cccc(COc4nc(OCc5cncc(C#N)c5)c(CNC[C@@H](O)CC(=O)O)cc4Br)c3Cl)c2Cl)ccc1C1=NCCN1`
0.065

Please supply the value of reported IC50 for the item `Cc1c(COc2cc(OCc3cncc(C#N)c3)c(CN[C@@](C)(CO)C(=O)O)cc2Cl)cccc1-c1cccc(-c2nnc(CCN)o2)c1C`
0.284

Please supply the value of reported IC50 for the item `Cc1c(COc2cc(OCc3cncc(C#N)c3)c(CNC[C@@H](F)C(C)(C)O)cc2Cl)cccc1-c1cccc(COc2cc(OCc3cncc(C#N)c3)c(CNC[C@@H](F)C(C)(C)O)cc2Cl)c1C`
77.8

Please supply the value of reported IC50 for the item `COc1ccc(-c2cccc(-c3cccc(COc4cc(OCc5cncc(C#N)c5)c(CN[C@@](C)(CO)C(=O)O)cc4Cl)c3C)c2C)cc1CN`
0.115

Please supply the value of reported IC50 for the item `Cc1c(COc2ccc(CNC[C@@H](O)CC(=O)O)c(OCc3cncnc3)n2)cccc1-c1cccc(COc2ccc(CNC[C@@H](O)CC(=O)O)c(OCc3cncnc3)n2)c1C`
0.2

Please supply the value of reported IC50 for the item `COc1nc(O[C@H]2CCc3c(-c4cccc(-c5cnc(CNC[C@@H]6CCC(=O)N6)c(OC)n5)c4Cl)cccc32)c(Cl)cc1CNC[C@@H]1CCC(=O)N1`
0.158

Please supply the value of reported IC50 for the item `COc1nc(O[C@H]2CCc3c(-c4cccc(-c5cnc(CN[C@@H]6CCC[C@@H]6O)c(OC)n5)c4Cl)cccc32)c(Cl)cc1CN[C@@](C)(CO)C(=O)O`
0.064

Please supply the value of reported IC50 for the item `Cn1cc(CN2CC3(CNC(=O)C3)C2)c2ncc(-c3cccc(-c4cccc(-c5cnc6c(CN7CC8(CNC(=O)C8)C7)cn(C)c6n5)c4Cl)c3Cl)nc21`
0.081

Please supply the value of reported IC50 for the item `Cc1c(COc2cc(OCc3cncc(C(N)=O)c3)c(CNC[C@@H](O)CC(=O)O)cc2Cl)cccc1-c1cccc(COc2cc(OCc3cncc(C(N)=O)c3)c(CNC[C@@H](O)CC(=O)O)cc2Cl)c1C`
0.3

Please supply the value of reported IC50 for the item `COc1nc(O[C@H]2CCc3c(-c4cccc(-c5cnc6c(CN7CC8(CNC(=O)C8)C7)cn(C)c6n5)c4Cl)cccc32)c(Cl)cc1CN1CC[C@@H](C(=O)O)C1`
0.064

Please supply the value of reported IC50 for the item `Cc1c(COc2cc(OCc3cncc(C#N)c3)c(CNCCCO)cc2Cl)cccc1-c1cccc(COc2cc(OCc3cncc(C#N)c3)c(CNCCCO)cc2Cl)c1C`
56.1

---

# Tested Target: interaction between the recombinant extracellular domain (ECD) of PD-1 and native cell-bound PD-L1 (Homo sapiens, UniProt Q9NZQ7)
# Experiment: CHO/PD-L1 cell capture assay
# Test Conditions: CHO cells overexpressing PD-L1, pre-incubated 1 hr with compound, captured on biotinylated Fc-PD-1 coated plates, 75 min at room temperature
Provide the reported pEC50 of each item.
Note on pEC50: it is the negative log10 of concentration, concentration in mol/L.

Please supply the value of reported pEC50 for the item Cc1c(COc2nc(OCCc3cncnc3)c(CNCC(=O)O)cc2Cl)cccc1-c1cccc(COc2nc(OCCc3cncnc3)c(CNCC(=O)O)cc2Cl)c1C [Example 133]
6.89

Please supply the value of reported pEC50 for the item COc1nc(OCc2cccc(-c3cccc(COc4nc(OC)c(CN[C@@](C)(CO)C(=O)O)cc4Br)c3C)c2C)c(Br)cc1CN[C@@](C)(CO)C(=O)O [Example 45]
6.78

Please supply the value of reported pEC50 for the item Cc1c(COc2cc(OCc3cncc(C#N)c3)c(CNC[C@@H](O)CC(=O)O)cc2Cl)cccc1-c1cccc(OCc2ccc(CNC[C@@H](O)CC(=O)O)cc2)c1C [Example 279]
7.56

Please supply the value of reported pEC50 for the item COc1nc(O[C@H]2CCc3c(-c4cccc5c4CC[C@@H]5Oc4nc(OC)c(CNCC(=O)O)cc4Cl)cccc32)c(Cl)cc1CNCC(=O)O [Example 2]
5.89

Please supply the value of reported pEC50 for the item COc1nc(OCc2cccc(-c3cccc(COc4nc(OC)c(CN5C[C@@H](O)C[C@H]5C(=O)O)cc4Cl)c3C)c2C)c(Cl)cc1CN1C[C@@H](O)C[C@H]1C(=O)O [Example 48]
6.53

Please supply the value of reported pEC50 for the item Cc1c(COc2cc(OCc3cncc(C#N)c3)c(CNC[C@@H](O)CC(=O)O)cc2Cl)cccc1-c1cccc(-c2ccc3cc(CNC[C@@H](O)CC(=O)O)ccc3c2)c1C [Example 31]
7.52

Please supply the value of reported pEC50 for the item COc1nc(OC2CCc3c(-c4cccc5c4CCC5Oc4ccc(CNC[C@@H](O)CC(=O)O)c(OC)n4)cccc32)ccc1CNC[C@@H](O)CC(=O)O (stereo partly shown) [Example 13]
6.34

Please supply the value of reported pEC50 for the item Cc1c(COc2cc(OCc3cncc(C#N)c3)c(CNC[C@H](O)CC(=O)O)cc2Cl)cccc1-c1cccc(COc2cc(OCc3cncc(C#N)c3)c(CNC[C@H](O)CC(=O)O)cc2Cl)c1C [Example 162]
6.58

Please supply the value of reported pEC50 for the item COc1nc(OCc2cccc(-c3cccc(COc4nc(OC)c(CNC[C@@H](F)C(=O)O)cc4Cl)c3C)c2C)c(Cl)cc1CNC[C@@H](F)C(=O)O [Example 179]
6.50

Please supply the value of reported pEC50 for the item COc1nc(OCc2cccc(-c3cccc(COc4nc(OC)c(CNCCC(=O)O)cc4Cl)c3C)c2C)c(Cl)cc1CNCCC(=O)O [Example 172]
7.30

Please supply the value of reported pEC50 for the item C[C@](CO)(NCc1cc(Br)c(OCc2cccc(-c3cccc(COc4nc(OCc5cncc(C#N)c5)c(CN[C@](C)(CO)C(=O)O)cc4Br)c3Cl)c2Cl)nc1OCc1cncc(C#N)c1)C(=O)O [Example 198]
7.00

Please supply the value of reported pEC50 for the item COc1nc(OCc2cccc(-c3cccc(COc4cc(OCc5cncc(C#N)c5)c(CNC[C@@H](O)CC(=O)O)cc4Cl)c3C)c2C)ccc1CNC[C@@H](O)CC(=O)O [Example 203]
6.50

Please supply the value of reported pEC50 for the item Cc1c(COc2ccc(CNC[C@@H](O)CC(=O)O)c(OCc3cncnc3)n2)cccc1-c1cccc(COc2ccc(CNC[C@@H](O)CC(=O)O)c(OCc3cncnc3)n2)c1C [Example 157]
7.09

Please supply the value of reported pEC50 for the item COc1nc(OCc2cccc(-c3cccc(COc4nc(OC)c(CNC[C@H](O)CC(=O)O)cc4Cl)c3C)c2C)c(Cl)cc1CNC[C@H](O)CC(=O)O [Example 49]
6.91

Please supply the value of reported pEC50 for the item Cc1c(COc2nc(OCC3CCO3)c(CNC[C@@H](O)CC(=O)O)cc2Br)cccc1-c1cccc(COc2nc(OCC3CCO3)c(CNC[C@@H](O)CC(=O)O)cc2Br)c1C (stereo partly shown) [Example 131]
6.64

Please supply the value of reported pEC50 for the item Cc1c(COc2ccc(CNC[C@@H](O)CC(=O)O)c(OCc3cncc(C#N)c3)n2)cccc1-c1cccc(COc2ccc(CNC[C@@H](O)CC(=O)O)c(OCc3cncc(C#N)c3)n2)c1C [Example 242]
6.89

Please supply the value of reported pEC50 for the item COc1nc(OCc2cccc(-c3cccc(COc4nc(OC)c(CN[C@@H](C)CC(=O)O)cc4Cl)c3C)c2C)c(Cl)cc1CN[C@@H](C)CC(=O)O [Example 74]
6.76

Please supply the value of reported pEC50 for the item Cc1c(COc2cc(OCc3cncc(C#N)c3)c(CNC[C@@H](O)CC(=O)O)cc2Cl)cccc1-c1cccc(-c2ccc(OCCNC[C@@H](O)CC(=O)O)c([N+](=O)[O-])c2)c1C [Example 92]
7.59

Please supply the value of reported pEC50 for the item CCCc1cc(CNCCO)c(OCc2cncc(C#N)c2)cc1OCc1cccc(-c2cccc(COc3cc(OCc4cncc(C#N)c4)c(CNCCO)cc3CCC)c2C)c1C [Example 39]
6.57

Please supply the value of reported pEC50 for the item COc1nc(OCc2cccc(-c3cccc(COc4nc(OC)c(CN[C@H](C)C(=O)O)cc4Cl)c3C)c2C)c(Cl)cc1CN[C@H](C)C(=O)O [Example 90]
6.66

Please supply the value of reported pEC50 for the item COc1nc(OCc2cccc(-c3cccc(COc4nc(OC)c(CNC[C@@H](O)CC(=O)O)cc4Br)c3C)c2C)c(Br)cc1CNC[C@@H](O)CC(=O)O [Example 113]
6.83

Please supply the value of reported pEC50 for the item COc1nc(OCc2cccc(-c3cccc(COc4nc(OC)c(CN[C@](C)(CO)C(=O)O)cc4Cl)c3C)c2C)c(Cl)cc1CN[C@](C)(CO)C(=O)O [Example 43]
7.19
